The reader will find reported % of control remaining values listed item by item below.
System: S. aureus MSSA476
Construct: MSSA476
Set-up: species or system S. aureus MSSA476 (TSB) or V. cholerae SAD30 (LB); 384-well bacterial growth screen at 25 uM, OD600 relative to DMSO control
testContext: relative growth, OD600, TSB; 25 µM; inhibitor
The campaign covered roughly 3,200 compounds. About 75 (2%) showed an effect of 50% or more. The full list was thinned out, with strong results kept by preference.
Kindly provide the numeric value in % only, without the unit symbol.

>>> df
                          structurenotation        assaytarget        propertymeasured  unitofmeasure  measurement
0      Cc1cc(C)cc(-n2c(C)cc(C(=O)CCl)c2C)c1  S. aureus MSSA476  % of control remaining              %      128.438
1  Cc1cc(C(=O)CCl)c(C)n1-c1ccc(C(C)(C)C)cc1  S. aureus MSSA476  % of control remaining              %      101.875

-- ask Please give the measured % of control remaining for this molecule: N#CC(=Cc1cc(F)ccc1F)C(=O)Nc1cc(Cl)ccc1Cl
-- reply 131.12
